# Test system: Mycobacterium tuberculosis
# assayExplanation: Cornell M. t heat shock assay; also: in the data most compounds retested in dose-response had high values
# Type: functional, organism-based
# Design: dose or concentration left out as unconfirmed
Among all 69,000 compounds or so, about 950 (1.4%) showed an effect of 50% or more. The full list was thinned out, with strong results kept by preference.
We begin with a simple list: items and their reported Percent Effect.
Answer in %, number only, no unit symbol.

Ask: Report Percent Effect, nothing else, for this molecule: O=C(O)C(F)(F)F.O=C(c1c[nH]cn1)N1CCC(F)(F)C2(CCN(c3ncccn3)C2)C1 (centres undefined)
Result: -10.36

Ask: Report Percent Effect, nothing else, for this molecule: N#Cc1nc(COc2ccc3c(c2)OCO3)oc1NC1CCCCC1
Result: 5.438

Ask: Report Percent Effect, nothing else, for this molecule: CCOc1ccccc1C1CCCN1.Cl (centres undefined)
Result: 3.065

Ask: Report Percent Effect, nothing else, for this molecule: Cc1cc(F)ccc1-c1ccccc1CC1CNCCNC1=O.Cl (centres undefined)
Result: 10.68

---

# Tested on: Mycobacterium tuberculosis
# assayExplanation: Cornell M. t heat shock assay; also: in the data most compounds retested in dose-response had high values
# Format: functional, organism-based
# Design: dose or concentration left out as unconfirmed
Among all 69,000 compounds or so, about 950 (1.4%) showed an effect of 50% or more. What follows is part of a selection rich in strong results, with near analogues and random picks from the rest.
We begin with a simple list: items and their reported Percent Effect.
Report as: number unit

For orientation, consider the following solved cases.
{"compound": "I.c1cc2c(cc1C1(CNC3=NCCN3)CCCC1)OCCO2", "Percent Effect": "-5.173%"}
{"compound": "Cc1cccc(CN2C[C@@H]3COC[C@]3(COCC(=O)N(C)C)C2)n1.O=C(O)C(F)(F)F.O=C(O)C(F)(F)F", "Percent Effect": "-9.127%"}
{"compound": "Cc1noc(C)c1CN1C[C@@H]2COC[C@@H](CC(=O)N3CCCCO3)[C@@H]2C1.O=C(O)C(F)(F)F", "Percent Effect": "-4.663%"}

Ask: Name the value of Percent Effect reported for COCCN1CCC2(CC1)C(=O)Nc1ccc(C(=O)NC(C)C)cc12.O=C(O)C(F)(F)F when tested on Mycobacterium tuberculosis.
Result: -30.6%

Ask: Name the value of Percent Effect reported for NCC1CCCN(c2nc(-c3ccccc3)nc3c2CCNCC3)C1 (centres undefined) when tested on Mycobacterium tuberculosis.
Result: 69.25%

Ask: Name the value of Percent Effect reported for CC(C)C[C@H](N)COc1cccc(F)c1Oc1ccc(Cl)cc1 when tested on Mycobacterium tuberculosis.
Result: 105.7%

Ask: Name the value of Percent Effect reported for CC(C)N1CCO[C@H]2CN(C(=O)c3ccsc3)C[C@H]21.O=C(O)C(F)(F)F when tested on Mycobacterium tuberculosis.
Result: -22.87%

Ask: Name the value of Percent Effect reported for Cl.NC1CCc2nc(-c3cccnc3)nc(Nc3ccc(F)cc3)c2C1 (centres undefined) when tested on Mycobacterium tuberculosis.
Result: 99.91%

Ask: Name the value of Percent Effect reported for Cc1ccc(C(=O)N2CCC3(CC2)CN(CCN(C)C)C(=O)O3)c(F)c1 when tested on Mycobacterium tuberculosis.
Result: 97.5%

Ask: Name the value of Percent Effect reported for COCC(=O)N1CCCC1c1cccc(Nc2ncc(C)s2)n1 (centres undefined) when tested on Mycobacterium tuberculosis.
Result: 102.5%

---

# Tested on: Mycobacterium tuberculosis
# assayExplanation: Cornell M. t heat shock assay; also: in the data most compounds retested in dose-response had high values
# Assay type: functional, organism-based
# Set-up: dose or concentration left out as unconfirmed
The campaign covered roughly 69,000 compounds. About 950 (1.4%) showed an effect of 50% or more. Many of the other results were omitted from the sample, so strong results are more common in it than they were.
We begin with a simple list: items and their reported Percent Effect.
Report as: number unit

{"compound": "COCC1CC2(CCN(Cc3ccncc3)CC2)CN1C(C)C.O=C(O)C(F)(F)F.O=C(O)C(F)(F)F.O=C(O)C(F)(F)F (stereo unspecified)", "Percent Effect": "-9.126%"}
{"compound": "CS(=O)(=O)CCC(=O)Nc1nccn1Cc1ccccc1Cl", "Percent Effect": "51.39%"}
{"compound": "Cc1nc2ccccc2nc1CN(C)CC1CCCN1c1cccnn1 (stereo unspecified)", "Percent Effect": "18.99%"}

Ask: Name the value of Percent Effect reported for Oc1nc(N2CCOCC2)nc2c1CCN(Cc1cccc(F)c1)CC2 when tested on Mycobacterium tuberculosis.
Result: -9.224%

Ask: Name the value of Percent Effect reported for CCOCC(=O)Nc1cccnc1-n1ccnc1C when tested on Mycobacterium tuberculosis.
Result: 3.015%

Ask: Name the value of Percent Effect reported for Cn1c(CCN2CCN(c3ccc(O)cc3)CC2)nc2ccccc21 when tested on Mycobacterium tuberculosis.
Result: -8.24%

Ask: Name the value of Percent Effect reported for CC(NC(=O)CCn1c(=O)oc2ccccc21)c1ccccn1 (stereo unspecified) when tested on Mycobacterium tuberculosis.
Result: -6.717%

Ask: Name the value of Percent Effect reported for CC(C)N(C)CC(=O)Nc1nccn1Cc1ccccc1Cl when tested on Mycobacterium tuberculosis.
Result: 70.24%

Ask: Name the value of Percent Effect reported for O=C(Cn1c(=O)oc2ccccc21)NCC(O)c1ccc2c(c1)CCO2 (stereo unspecified) when tested on Mycobacterium tuberculosis.
Result: -3.535%

Ask: Name the value of Percent Effect reported for CN1CCC(c2nc3ccc(-c4ccccc4)cn3n2)CC1.O=C(O)C(F)(F)F when tested on Mycobacterium tuberculosis.
Result: -24.93%

Ask: Name the value of Percent Effect reported for O=C(CCn1c(=O)oc2ccccc21)NCC(O)c1ccc(Cl)cc1 (stereo unspecified) when tested on Mycobacterium tuberculosis.
Result: -3.948%

Ask: Name the value of Percent Effect reported for Cc1nc(C2CCNC2)nc2c1CCC(=O)N2C.Cl (stereo unspecified) when tested on Mycobacterium tuberculosis.
Result: 7.271%

Ask: Name the value of Percent Effect reported for COc1cccc(Nc2nc(C3CCNCC3)c3ccccn23)c1.Cl when tested on Mycobacterium tuberculosis.
Result: 10.85%

Ask: Name the value of Percent Effect reported for O=C(CN1CCCS1(=O)=O)Nc1ccc(OC(F)F)cc1 when tested on Mycobacterium tuberculosis.
Result: -14.39%

Ask: Name the value of Percent Effect reported for CN(C)C(=O)CN1CCCC2(CCN(c3ccsc3)C2=O)C1.O=C(O)C(F)(F)F (stereo unspecified) when tested on Mycobacterium tuberculosis.
Result: -10.79%

Ask: Name the value of Percent Effect reported for CC(C)N(C)CC(=O)NC1CCc2nccn2C1 (stereo unspecified) when tested on Mycobacterium tuberculosis.
Result: -3.465%

Ask: Name the value of Percent Effect reported for CN(Cc1ncc(C(C)(C)C)o1)CC1CCCN1c1cccnn1 (stereo unspecified) when tested on Mycobacterium tuberculosis.
Result: 66%

Ask: Name the value of Percent Effect reported for Cc1cccc2nc(CN3CCCC3Cn3cncn3)cn12 (stereo unspecified) when tested on Mycobacterium tuberculosis.
Result: -15.33%

Ask: Name the value of Percent Effect reported for COc1ccc(CN2C[C@@H](OCc3ccccn3)[C@H]3COC[C@H]32)cc1.O=C(O)C(F)(F)F.O=C(O)C(F)(F)F when tested on Mycobacterium tuberculosis.
Result: -14.6%

Ask: Name the value of Percent Effect reported for O=C(NCCc1cccs1)[C@H]1CO[C@H]2CCNC[C@H]2C1.O=C(O)C(F)(F)F when tested on Mycobacterium tuberculosis.
Result: 0.5431%

Ask: Name the value of Percent Effect reported for Cn1c(CNCC2CCCN2c2cccnn2)nc2ccccc21 (stereo unspecified) when tested on Mycobacterium tuberculosis.
Result: 3.675%

---

# Test system: Mycobacterium tuberculosis
# assayExplanation: Cornell M. t heat shock assay; also: in the data most compounds retested in dose-response had high values
# Type: functional, organism-based
# Set-up: dose or concentration left out as unconfirmed
Among all 69,000 compounds or so, about 950 (1.4%) showed an effect of 50% or more. The entries come from a sample that favours strong results as a whole.
We begin with a simple list: items and their reported Percent Effect.
Answer in %, number only, no unit symbol.

For orientation, consider the following solved cases.
{"compound": "Cc1ccc(C(=O)N2CCc3c(CNc4ncccn4)cncc3C2)o1.Cl", "experimentalEndpoint": "Percent Effect", "unitString": "%", "recordedValue": -7.52}
{"compound": "CCCc1cncnc1N1CCC(NCc2ccc(O)cc2)CC1", "experimentalEndpoint": "Percent Effect", "unitString": "%", "recordedValue": -4.464}
{"compound": "CN(C)C(=O)N1CCC2(CCCN(Cc3cnn(C)c3)C2)C1.O=C(O)C(F)(F)F (configuration not stated)", "experimentalEndpoint": "Percent Effect", "unitString": "%", "recordedValue": -9.776}

Ask: Name the value of Percent Effect reported for O=C(CC1CC1)N1CCc2ncc(CN3CCOCC3)n2CC1.O=C(O)C(F)(F)F when tested on Mycobacterium tuberculosis.
Result: 2.118

Ask: Name the value of Percent Effect reported for CCN(CC)CC1CN(Cc2cccc(C#N)c2)Cc2nccn2C1.O=C(O)C(F)(F)F.O=C(O)C(F)(F)F (configuration not stated) when tested on Mycobacterium tuberculosis.
Result: -22.76

Ask: Name the value of Percent Effect reported for O=C(NC1CCC1)[C@H]1C[C@@H]2CN(C(=O)Nc3ccc(F)cc3)C[C@H]1O2 when tested on Mycobacterium tuberculosis.
Result: -5.328

Ask: Name the value of Percent Effect reported for COc1ccc(CN(Cc2cncn2C)CC2CCCO2)cc1.O=C(O)CC(O)(CC(=O)O)C(=O)O (configuration not stated) when tested on Mycobacterium tuberculosis.
Result: 1.542

Ask: Name the value of Percent Effect reported for CSc1nc(N)c2c(n1)N=C1COC(O)=C1C2c1cccc(Cl)c1 (configuration not stated) when tested on Mycobacterium tuberculosis.
Result: 2.564

Ask: Name the value of Percent Effect reported for O=C(O)C(F)(F)F.O=C1CC[C@H]2[C@H](CCN2c2ncccn2)N1c1ccccc1 when tested on Mycobacterium tuberculosis.
Result: 21.09

Ask: Name the value of Percent Effect reported for Fc1ccc(CN2CCC(F)(F)C3(CCN(c4cnccn4)C3)C2)cc1.O=C(O)C(F)(F)F.O=C(O)C(F)(F)F (configuration not stated) when tested on Mycobacterium tuberculosis.
Result: 3.728

Ask: Name the value of Percent Effect reported for Cn1cc(C(=O)N2CC[C@@H]3[C@@H]2CCN3Cc2cccc(F)c2)cn1.O=C(O)C(F)(F)F when tested on Mycobacterium tuberculosis.
Result: 6.285

Ask: Name the value of Percent Effect reported for Cc1cnc(NC(=O)c2cccc(CN(C)Cc3ccno3)c2)s1 when tested on Mycobacterium tuberculosis.
Result: 6.699
